Measured half-life values are reported for all entries that follow.
# Conditions: rat; liver microsomes; pH 7.4; 15.0 min; 1.0 µM

Compound	Result Unit	Measurement Qualifier	half-life
O=C(O)c1ccncc1Nc1nn(CCN2CCC(F)(F)CC2)c2ccc(F)cc12	min	=	22.2
COc1ccc(C2(C(=O)N3CCC(n4cc(-c5nc(C)no5)nn4)CC3)CC2)cc1	min	=	7.38
COC(=O)C1=C(C)NC(=O)CC1C(=O)Nc1ccc(Cl)cc1 (stereo not given)	min	=	21
CN(C(=O)CNC(=O)c1ccccc1OCC(=O)Nc1ccc(I)cc1)c1ccccc1	min	=	1.44
Cc1ccc(/C=C/c2nc3ccccc3n2S(=O)(=O)c2ccc(Br)cc2)cc1	min	=	28.6
COc1ccccc1-n1cnc2cc(C(=O)N3CCCCC3)ccc21	min	=	3.2
CCOc1ccc(C2c3c(oc4ccc(C)cc4c3=O)C(=O)N2CCCN(C)C)cc1 (stereo not given)	min	=	13.6
CCN(CC)C(=O)c1sc2c(c1C)c(=O)n(Cc1ccccc1)c(=O)n2CC(=O)Nc1ccc(OC)cc1	min	=	5.16
N#Cc1ccc(NS(=O)(=O)c2ccc(NC(=O)Cc3ccc(F)c(Cl)c3)cc2)cc1	min	>	30
Cc1nn(CC(=O)NCCCN2CCC(N3CCCCC3)CC2)c(=O)c2cc(-c3ccccc3)nn12	min	=	13
